pIC50 listing for selected compounds.
# target.desc: FGFR3 kinase (Homo sapiens)
# Sequence (P22607 23-806): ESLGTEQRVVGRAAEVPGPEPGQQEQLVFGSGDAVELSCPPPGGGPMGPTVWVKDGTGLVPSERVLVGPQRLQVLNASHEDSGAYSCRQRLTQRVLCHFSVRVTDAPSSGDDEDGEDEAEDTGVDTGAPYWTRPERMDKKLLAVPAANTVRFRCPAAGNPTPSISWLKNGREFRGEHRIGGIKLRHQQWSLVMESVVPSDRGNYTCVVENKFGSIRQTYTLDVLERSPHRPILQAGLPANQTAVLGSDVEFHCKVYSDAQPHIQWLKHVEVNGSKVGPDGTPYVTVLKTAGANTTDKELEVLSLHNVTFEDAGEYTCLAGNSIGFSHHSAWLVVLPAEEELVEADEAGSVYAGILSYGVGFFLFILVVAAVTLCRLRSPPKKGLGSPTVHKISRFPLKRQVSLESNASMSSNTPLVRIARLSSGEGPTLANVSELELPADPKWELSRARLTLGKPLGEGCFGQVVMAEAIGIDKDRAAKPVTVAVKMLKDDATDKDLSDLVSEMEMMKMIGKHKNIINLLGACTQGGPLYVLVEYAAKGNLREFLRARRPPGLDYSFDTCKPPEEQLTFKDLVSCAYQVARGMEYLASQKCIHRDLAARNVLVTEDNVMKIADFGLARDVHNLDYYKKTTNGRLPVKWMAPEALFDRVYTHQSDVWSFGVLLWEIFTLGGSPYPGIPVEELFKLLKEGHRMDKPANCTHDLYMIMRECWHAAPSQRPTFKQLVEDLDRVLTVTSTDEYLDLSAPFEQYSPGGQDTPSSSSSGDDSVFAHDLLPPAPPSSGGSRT
# protocol.text: Z-Lyte Kinase Assay of FGFR3
# Assay type: biochemical
# run.conditions: Z-lyte
pIC50: −log10 of the molar value.
measurement.kind: pIC50

sample.smiles	measured.number
CNC(=O)c1cc(COc2cnc(Nc3ccc([C@H]4CCCN(C(C)=O)C4)nc3)nc2)c(Cl)c(OC)c1	7.37
CNC(=O)c1cc(OC)c(Cl)c(COc2cnc(Nc3ccc(N4C[C@@H](C)N[C@@H](C)C4)c(C)c3)nc2)c1F	7.89
CNC(=O)c1cc(C#Cc2cnc(Nc3ccc(N4C[C@@H](C)N[C@@H](C)C4)c(OC)c3)nc2)c(F)c(OC)c1	7.59
CNC(=O)c1cc(COc2cnc(Nc3ccc(N4CCN(C5CC5)CC4)c(OC)c3)nc2)c(F)c(OC)c1	8.30
CCN1CCN(c2ccc(Nc3ncc(C#Cc4cc(C(=O)NC)cc(OC)c4F)cn3)cc2OC)CC1	7.68

----------
# System: KG-1
# protocol.text: Cellular Proliferation Assay (Cell Counting Kit-8), KG-1
# Type: cell-based
# run.conditions: Homo sapiens; KG-1 cells, 72 hours; read-out: KG1 IC50
# From the text: Example 26: Cellular Proliferation Assay • 1. Cell Line • KG-1 (ATCC Accession No. CCL-246), • SNU-16 (ATCC Accession No. CRL-5974), • RT-112 (ECACC Accession No. 85061106) • 2. […]
measurement.kind: IC50

compound	result
CNC(=O)c1cc(COc2cnc(Nc3ccc(O[C@@H]4O[C@H](CO)[C@@H](O)[C@H](O)[C@H]4O)cc3)nc2)c(Cl)c(OC)c1 [Compound 303]	40 nM
CNC(=O)c1cc(COc2cnc(Nc3ccc(N4C[C@@H](C)N(C)[C@@H](C)C4)cc3)nc2)c(Cl)c(OC)c1 [Compound 286]	8 nM
CNC(=O)c1cc(OC)c(F)c(COc2cnc(Nc3cccc(N4C[C@@H](C)N[C@@H](C)C4)c3)nc2)c1F [Compound 275]	46 nM
CNC(=O)c1cc(COc2cnc(Nc3cnn(C[C@H]4COC(C)(C)O4)c3)nc2)c(F)c(OC)c1 [Compound 249]	27 nM

----------
# System: KG-1
# protocol.text: Cellular Proliferation Assay (Cell Counting Kit-8), KG-1
# Format: cell-based
# run.conditions: Homo sapiens; KG-1 cells, 72 hours; read-out: KG1 IC50
Recorded IC50, one value per entry.

compound	target.desc	IC50, µM
CNC(=O)c1cc(COc2cnc(Nc3cnc(N4C[C@@H](C)N[C@@H](C)C4)c(F)c3)nc2)c(Cl)c(OC)c1 [Compound 292]	KG-1	0.046
CNC(=O)c1cc(CCc2cnc(Nc3ccc(C(C)(C)C#N)nc3)nc2)c(F)c(OC)c1 [Compound 142]	KG-1	0.064
CNC(=O)c1cc(CCc2cnc(Nc3ccc(N)cc3)nc2)c(Cl)c(OC)c1 [Compound 80]	KG-1	0.013
CCN1CCC(c2ccc(Nc3ncc(OCc4cc(C(=O)NC)cc(OC)c4F)cn3)cc2OC)CC1 [Compound 280]	KG-1	0.191
CCCN1CC(c2ccc(Nc3ncc(OCc4cc(C(=O)NC)cc(OC)c4F)cn3)cc2)C1 [Compound 240]	KG-1	0.023
CNC(=O)c1cc(CCc2cnc(Nc3ccc(O)cc3)nc2)c(Cl)c(OC)c1 [Compound 81]	KG-1	0.026
CCN1CCC(c2ccc(Nc3ncc(OCc4cc(C(=O)NC)cc(OC)c4F)cn3)cn2)CC1 [Compound 256]	KG-1	0.202
CNC(=O)c1cc(OC)c(Cl)c(COc2cnc(Nc3ccc(N4C[C@@H](C)N[C@@H](C)C4)nc3)nc2)c1F [Compound 291]	KG-1	0.015
